Could you please report measured IC50 for the items listed next?
tested on: SK-MEL3; assay: cells; type: functional, cell-based, Homo sapiens, SK-MEL-3; details: Homo sapiens, SK-MEL3;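 further: growth inhibition of human SK-MEL-3 cells, read out with a cell viability assay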
Description: SANGER: Inhibition of human SK-MEL-3 cell growth in a cell viability assay.

Consider the following illustrative entries.
| compound | tested.system | IC50 |
| --- | --- | --- |
| CN(Cc1cnc2nc(N)nc(N)c2n1)c1ccc(C(=O)N[C@@H](CCC(=O)O)C(=O)O)cc1 [METHOTREXATE] | SK-MEL3 | > 200 nM |
| Cc1cnc(-c2cnc(NCCNc3ccc(C#N)cn3)nc2-c2ccc(Cl)cc2Cl)[nH]1 | SK-MEL3 | > 2560 nM |

Now for the compound whose IC50 we want.
Sample CCOc1nc(NC(=O)Cc2cc(OC)ccc2OC)cc(N)c1C#N — what was its IC50?
> 10000 nM
